All values here come from ChEMBL document CHEMBL4049409.

I'd be grateful if you could share measured pIC50 for these entries.
subject of test: UDP-3-O-acyl-N-acetylglucosamine deacetylase (Pseudomonas aeruginosa (strain ATCC 15692 / PAO1 / 1C / PRS 101 / LMG12228))
Sequence (P47205 whole entry): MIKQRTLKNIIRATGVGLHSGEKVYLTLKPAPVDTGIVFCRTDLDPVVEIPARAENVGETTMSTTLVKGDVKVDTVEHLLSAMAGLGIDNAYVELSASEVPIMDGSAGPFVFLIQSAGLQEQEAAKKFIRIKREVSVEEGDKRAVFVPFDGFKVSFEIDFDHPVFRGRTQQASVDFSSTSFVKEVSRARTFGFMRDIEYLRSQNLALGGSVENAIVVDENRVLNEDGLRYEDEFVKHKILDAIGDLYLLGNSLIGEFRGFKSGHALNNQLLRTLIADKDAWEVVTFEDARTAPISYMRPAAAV
assay comment: Inhibition of LpxC in Pseudomonas aeruginosa isolate 44 ATCC 27853
One number for each entry, as −log10 of the molar value.

Look over these answered cases.
- C[C@@H](O)[C@H](N[C@H]1CCc2cc(C#Cc3ccc(CN4CC[C@@H](O)C4)cc3)ccc21)C(=O)NO: 7.59
- C[C@@H](O)[C@H](NC1COCc2cc(C#Cc3ccc(CN4CCOCC4)cc3)ccc21)C(=O)NO (stereo partly specified): 8.22
- C[C@@H](O)[C@H](N[C@H]1CCc2cc(C#Cc3ccc(CN4CC(O)C4)cc3)ccc21)C(=O)NO: 7.20
- C[C@@H](O)[C@H](NC1CCc2cc(C#Cc3ccccc3)ccc21)C(=O)NO (stereo partly specified): 7.70

Field: pIC50. Fill in for each record below.
1. CC(C)(O)[C@H](N[C@H]1CCc2cc(C#Cc3ccc(CN4CCOCC4)cc3)ccc21)C(=O)NO
2. C[C@@H](O)[C@H](NC1CCN(C)c2cc(C#Cc3ccccc3)ccc21)C(=O)NO (stereo partly specified)
3. C[C@@H](O)[C@H](NC1CCCc2cc(C#Cc3ccc(CN4CCOCC4)cc3)ccc21)C(=O)NO (stereo partly specified)
4. C[C@@H](O)[C@H](NC1CN(C)Cc2cc(C#Cc3ccccc3)ccc21)C(=O)NO (stereo partly specified)
5. C[C@@H](O)[C@H](N[C@H]1CCc2cc(C#Cc3ccc(CN4CCCCC4)cc3)ccc21)C(=O)NO
6. C[C@@H](O)[C@H](N[C@H]1CCc2cc(C#Cc3ccc(CN4CCOCC4)cc3)ccc21)C(=O)NO
7. CCCC(N[C@H](C(=O)NO)[C@@H](C)O)c1ccc(C#Cc2ccccc2)cc1 (stereo partly specified)

Given back:
1. 8.52
2. 7.82
3. 8.70
4. 6.97
5. 8.00
6. 8.52
7. 7.30

###

System: Escherichia coli
assay comment: Antibacterial activity against Escherichia coli isolate 35 ATCC 25922
Format: functional
I'd be grateful if you could share measured MIC for these entries.
One number for each entry, in µg/mL.

Look over these answered cases.
* C[C@@H](O)[C@H](NCc1ccc(C#Cc2ccccc2)cc1)C(=O)NO | 4
* C[C@@H](O)[C@H](NC1CCN(C)c2cc(C#Cc3ccc(CN4CCOCC4)cc3)ccc21)C(=O)NO (some centres undefined) | 2

Field: MIC. Fill in for each record below.
1. C[C@@H](O)[C@H](NC1COCc2cc(C#Cc3ccc(CN4CCOCC4)cc3)ccc21)C(=O)NO (some centres undefined)
2. C[C@@H](O)[C@H](N[C@H]1CCc2cc(C#Cc3ccc(CN4CCN(CCO)CC4)cc3)ccc21)C(=O)NO

Given back:
1: 0.25; 2: 2

###

subject of test: UDP-3-O-acyl-N-acetylglucosamine deacetylase (Pseudomonas aeruginosa (strain ATCC 15692 / PAO1 / 1C / PRS 101 / LMG12228))
assay comment: Inhibition of LpxC in Pseudomonas aeruginosa isolate 847
I'd be grateful if you could share measured IC50 for these entries.
Answers are plain numbers, in nM.

Look over these answered cases.
- C[C@@H](O)[C@H](N[C@H]1CCc2cc(C#Cc3ccc(CN4CCOCC4)cc3)ccc21)C(=O)NO: 2
- CC(C)(N)[C@H](N[C@H]1CCc2cc(C#Cc3ccc(Cn4ccnc4CO)cc3)ccc21)C(=O)NO: 2
- CC(C)(O)[C@H](N[C@H]1CCc2cc(C#Cc3ccc(CN4CCOCC4)cc3)ccc21)C(=O)NO: 0.4

API: the following record is the query input.
The compound listed as CC(C)(N)[C@H](N[C@H]1CCc2cc(C#Cc3ccc(CN4CCOCC4)cc3)ccc21)C(=O)NO shows IC50 equal to 1

###

Tested on: Escherichia coli
assay comment: Antibacterial activity against Escherichia coli isolate 35 ATCC 25922
Format: functional
I'd be grateful if you could share measured MIC for these entries.
Numbers only, in µg/mL.

* C[C@@H](O)[C@H](NC1CCCc2cc(C#Cc3ccccc3)ccc21)C(=O)NO (stereo partly drawn) | 1
* CNCCOCc1ccc(C#Cc2ccc3c(c2)CC[C@@H]3N[C@H](C(=O)NO)[C@@H](C)O)cc1 | 4
* CC(N[C@H](C(=O)NO)[C@@H](C)O)c1ccc(C#Cc2ccccc2)cc1 (stereo partly drawn) | 4
* C[C@@H](O)[C@H](N[C@H]1CCc2cc(C#Cc3ccc(Cn4ccnc4CCO)cc3)ccc21)C(=O)NO | 1
* C[C@@H](O)[C@H](N[C@H]1CCc2cc(C#Cc3ccc(CN4CC(O)C4)cc3)ccc21)C(=O)NO | 4
* C[C@@H](O)[C@H](NC1CCc2cc(C#Cc3ccc(CN4CCOCC4)cc3)ccc21)C(=O)NO (stereo partly drawn) | 0.25

API: the following record is the query input.
The molecule listed as C[C@@H](O)[C@H](N[C@H]1CCc2cc(C#Cc3ccc(CN4CC[C@@H](O)C4)cc3)ccc21)C(=O)NO shows MIC equal to 2

###

assay comment: Fraction unbound in mouse plasma at 10 uM by equilibrium dialysis method
Assay type: ADME, cell-free
recorded endpoint: fraction unbound at 10 µM
One number for each entry.

The molecule listed as CC(C)(N)[C@H](N[C@H]1CCc2cc(C#Cc3ccc(Cn4ccnc4CO)cc3)ccc21)C(=O)NO shows fraction unbound at 10 µM equal to 0.067
